- MEASUREMENT_PROTOCOL: gradient 5% acetonitrile 3 min, to 50% in 2 min, to 85% in 15 min, held 3 min, 100 µL/min
- PROTOCOL_CONDITIONS: column: Zorbax Extend-C18 2.1 x 50 mm; eluents: water / acetonitrile, 0.1% formic acid
REPORTED_PROPERTY: RP-LC retention time (s)

COC(=O)C1=CN(C2CC2)c2cc(N3CCN(c4ccc(C(C)=O)cc4)CC3)c(F)cc2S1(=O)=O | 906
Cn1cc(C2=CCN(S(=O)(=O)c3ccccc3)CC2)c2cccnc21 | 927
Cc1nc2nc(-c3ccc(C(C)(C)C)cc3)nn2c(C)c1CC(=O)N1CCN(C)CC1 | 682
COc1ccc(CN(Cc2ccccc2)Cc2cc(=O)n3cc(C)ccc3n2)cc1 | 696

---

- MEASUREMENT_PROTOCOL: gradient 5% acetonitrile 3 min, to 50% in 2 min, to 85% in 15 min, held 3 min, 100 µL/min
- PROTOCOL_CONDITIONS: column: Zorbax Extend-C18 2.1 x 50 mm; eluents: water / acetonitrile, 0.1% formic acid
REPORTED_PROPERTY: RP-LC retention time (s)

Cc1oc(C2CCN(S(=O)(=O)c3ccccc3)CC2)nc1C(=O)N1CCOCC1 | 758
O=C(CC1CCN(C(=O)NCc2ccccc2)CC1)NCc1ccc(F)cc1 | 737

P = Cc1nnc(N2CCCC(C(=O)NCCCN3CCCC3)C2)c2nn(-c3ccccc3)c(C)c12 (stereo not given)
Q = Cc1ccc(C)c(NC(=O)N2CCN(c3ccc(=O)n(-c4ccccc4)n3)CC2)c1
R = CCc1ccc(-c2ccc(-n3nc(C)c(S(=O)(=O)N4CCC(C)CC4)c3C)nn2)cc1
List items by RP-LC retention time in falling order. // format: requested-order list of labels
R, Q, P

---

- MEASUREMENT_PROTOCOL: gradient 5% acetonitrile 3 min, to 50% in 2 min, to 85% in 15 min, held 3 min, 100 µL/min
- PROTOCOL_CONDITIONS: column: Zorbax Extend-C18 2.1 x 50 mm; eluents: water / acetonitrile, 0.1% formic acid
REPORTED_PROPERTY: RP-LC retention time (s)

CC(C)Oc1ccc(CNS(=O)(=O)c2cc(-c3nc(C(C)(C)C)cs3)cs2)cc1 | 1320
COc1ccc(-c2cc(=O)n3c4ccccc4n(CC(=O)NCc4ccco4)c3n2)cc1 | 855
COc1ccc(-c2cc(C(=O)NCC(c3cccs3)N(C)C)no2)cc1 (stereo unspecified) | 675
COc1ccc(OC)c(CN2CCCC(OCc3noc(-c4ccoc4)n3)C2)c1 (stereo unspecified) | 702
CCCCN1CCN(C(=O)c2cn(-c3cc(N4CCC(C)CC4)ncn3)cn2)CC1 | 690
CCCCN1CCN(c2ncccc2-c2nnc(-c3ccc(Cl)cc3)o2)CC1 | 743
CC(C)C(=O)N1CCCC1c1nc(CCOCC2CC2)no1 (stereo unspecified) | 733
CCn1cc(S(=O)(=O)NC2CCCC2)c2cccnc21 | 808
COCCN1CCn2cc(S(=O)(=O)Nc3ccc(Cl)cc3F)cc2C1=O | 734
Cc1noc(C)c1C1CCCN1C(=O)Nc1ccccc1Br (stereo unspecified) | 836
O=C1NCCCCCN(C(=O)c2ccco2)[C@@H]2C[C@@H](C(=O)N3CCc4ccccc4C3)C[C@H]12 | 752
CCc1ccc(S(=O)(=O)N2CCC(n3cnnc3C3CC3)CC2)cc1 | 772
CCNC(=O)c1nc2cc(C)c(C)cc2n(C)c1=O | 698
Cc1ccc(NC(=O)Cn2c(C(C)C)nc3c(c2=O)CCN(Cc2ccccc2)C3)cc1F | 740
CN(CCc1noc(COc2ccccc2)n1)C(=O)Nc1ccccc1C(F)(F)F | 953
CCc1ccc(CNC(=O)C2CC(=O)N(c3ccc4c(c3)CCN4C(C)=O)C2)cc1 (stereo unspecified) | 932

---

- MEASUREMENT_PROTOCOL: gradient 5% acetonitrile 3 min, to 50% in 2 min, to 85% in 15 min, held 3 min, 100 µL/min
- PROTOCOL_CONDITIONS: column: Zorbax Extend-C18 2.1 x 50 mm; eluents: water / acetonitrile, 0.1% formic acid
REPORTED_PROPERTY: RP-LC retention time (s)

For orientation, consider the following solved cases.
Cc1cc(C)cc(N2CC(C)Cn3c2nc2c3c(=O)n(CC(=O)O)c(=O)n2C)c1 (stereo not drawn) | 826
COc1ccc(-c2cn3c(CCC(=O)NCc4ccco4)csc3n2)cc1 | 637
CCc1ccc(CNC(=O)C2=C3CCCN3c3ccc(F)cc3S2(=O)=O)cc1 | 996
Cc1ccc(CN2CCN(CC(=O)N3CCC4(CC3)OCCO4)C(=O)C2=O)cc1 | 653
O=C1CC(c2noc(-c3ccc(F)cc3)n2)CN1c1ccc(F)c(Cl)c1 (stereo not drawn) | 1100

a = O=S(=O)(c1cc(F)ccc1F)N1CCc2nc(-c3ccc(Cl)cc3)ncc2C1
b = Cc1ccccc1NC(=O)C1CCCN1S(=O)(=O)c1cc2c(cc1C)NC(=O)CO2 (stereo not drawn)
Which gives the smaller RP-LC retention time number: a or b ? Mark your answer with the label of the selected entry.
b
(b: 763 s, a: 1210 s)

A = Cn1c(C(=O)NCCC2=CCCCC2)cc2c(=O)oc3ccccc3c21
B = CC(C)n1nnc2cc(C(=O)N(C)C)ccc21
Which gives the smaller RP-LC retention time number: A or B ? Mark your answer with the label of the selected entry.
B
(B: 648 s, A: 1050 s)

a = COc1ccc(CNc2ccc(S(=O)(=O)C(C)(C)C)nn2)cc1OC
b = Cc1cc(S(=O)(=O)N2CCc3nc(-c4ccccc4)ncc3C2)ccc1F
Of a and b , whose reported RP-LC retention time is the larger number? Mark your answer with the label of the selected entry.
b

a = CCN1C(=O)c2cccnc2Sc2cc(NC(=O)c3ccn(CC)n3)ccc21
b = COc1cc(Nc2nc(-c3nnn(-c4ccc(Br)cc4F)c3C)ns2)cc(OC)c1
Which gives the smaller RP-LC retention time number: a or b ? Mark your answer with the label of the selected entry.
a

P = COC(=O)c1ccc(NC(=O)C2CCN(c3cc(N4CCCCC4)ncn3)CC2)cc1
Q = Cc1oc2ccn(Cc3ccccc3F)c(=O)c2c1C(=O)NCc1cccs1
Of P and Q , whose reported RP-LC retention time is the larger number? Mark your answer with the label of the selected entry.
Q
(Q: 1030 s, P: 715 s)

a = c1ccc(-c2nc(-c3cccc(-c4ccn[nH]4)c3)no2)nc1
b = CCN1C(=O)COc2ccc(-c3noc(-c4ccc(C)c(C)c4)n3)cc21
Of a and b , whose reported RP-LC retention time is the larger number? Mark your answer with the label of the selected entry.
b

A = O=C(Nc1cnn(-c2ncc(N3CCSCC3)cn2)c1)C1CCCC1
B = Cc1c(Cl)cccc1NC(=O)Cn1c(C)nc2c(sc3nc(-c4ccccc4)ccc32)c1=O
Of A and B , whose reported RP-LC retention time is the larger number? Mark your answer with the label of the selected entry.
B
(B: 1210 s, A: 737 s)

---

- MEASUREMENT_PROTOCOL: gradient 5% acetonitrile 3 min, to 50% in 2 min, to 85% in 15 min, held 3 min, 100 µL/min
- PROTOCOL_CONDITIONS: column: Zorbax Extend-C18 2.1 x 50 mm; eluents: water / acetonitrile, 0.1% formic acid
REPORTED_PROPERTY: RP-LC retention time (s)

CC1OC(Oc2c(-c3cc(O)c(O)c(O)c3)oc3cc(O)cc(O)c3c2=O)C(O)C(O)C1O (stereo not drawn) | 651
Cc1cccc(N2CCN(C(=O)CCC3CCCN(C(=O)Nc4ccccc4)C3)CC2)c1C (stereo not drawn) | 1080
COC(=O)c1c(NC(=O)CN2C(=O)CCC2=O)sc(Cc2ccc3c(c2)OCO3)c1C | 864

---

- MEASUREMENT_PROTOCOL: gradient 5% acetonitrile 3 min, to 50% in 2 min, to 85% in 15 min, held 3 min, 100 µL/min
- PROTOCOL_CONDITIONS: column: Zorbax Extend-C18 2.1 x 50 mm; eluents: water / acetonitrile, 0.1% formic acid
REPORTED_PROPERTY: RP-LC retention time (s)

For orientation, consider the following solved cases.
COc1ccc(-c2cc(C(=O)NCCc3c[nH]c4ccccc34)[nH]n2)cc1 | 814
Cc1ccc(CNC(=O)C2CCCN(c3ncc(-c4cccc(F)c4)cn3)C2)o1 (stereo not drawn) | 851
O=C(c1ccsc1)N1CCN(c2[nH]ncc2-c2ccccc2)CC1 | 774

I = CNC(=O)[C@@H]1CN(C(=O)CCc2cc(OC)no2)C[C@H]1c1n[nH]c(C)n1
II = Cn1cc(C2=CCN(C(=O)Cc3ccccc3F)CC2)c2cccnc21
Of I and II , whose reported RP-LC retention time is the larger number? Mark your answer with the label of the selected entry.
II
(II: 855 s, I: 553 s)
